Target: T1, CEACAM1 antigen (Sino Biological, Inc.) (UniProt P13688 35-428)
T1 construct: Bought antigen, coated on the ELISA plate; construct not described; also called CEACAM1 (CD66a) antigen; CD66a
T1 sequence (looked up): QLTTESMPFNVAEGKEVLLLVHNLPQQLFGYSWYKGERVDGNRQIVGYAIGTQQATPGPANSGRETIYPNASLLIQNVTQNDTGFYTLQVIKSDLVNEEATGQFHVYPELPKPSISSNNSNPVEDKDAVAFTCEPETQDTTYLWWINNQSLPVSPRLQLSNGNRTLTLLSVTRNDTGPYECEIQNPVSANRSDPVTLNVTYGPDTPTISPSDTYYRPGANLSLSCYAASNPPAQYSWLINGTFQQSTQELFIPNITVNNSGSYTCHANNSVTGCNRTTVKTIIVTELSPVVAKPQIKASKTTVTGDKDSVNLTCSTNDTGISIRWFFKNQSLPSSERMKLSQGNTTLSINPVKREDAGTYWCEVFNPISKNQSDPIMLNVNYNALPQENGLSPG
Assay: ELISA, CEACAM1 coated 100 ng/well, antibody at 1.52 ng/ml
measured_parameter: OD 450 nm

- binder: "recombinant humanized anti-CD66c antibody Protein ID 3058 (Vk8 + VH11) (antibody, human IgG1, V domains shown, also called hu 3058; #86) VH: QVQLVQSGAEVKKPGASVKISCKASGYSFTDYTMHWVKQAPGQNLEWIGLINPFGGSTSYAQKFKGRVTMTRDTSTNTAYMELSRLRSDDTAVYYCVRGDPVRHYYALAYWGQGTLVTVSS VL: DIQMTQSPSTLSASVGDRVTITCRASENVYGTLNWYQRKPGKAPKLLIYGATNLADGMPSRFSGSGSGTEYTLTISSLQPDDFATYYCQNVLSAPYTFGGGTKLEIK"
  result: "0.05 OD 450 nm"
- binder: "anti-CD66c chimeric antibody 8F5 (antibody, human IgG1, V domains shown, also called chimeric 8F5; chi 8F5) VH: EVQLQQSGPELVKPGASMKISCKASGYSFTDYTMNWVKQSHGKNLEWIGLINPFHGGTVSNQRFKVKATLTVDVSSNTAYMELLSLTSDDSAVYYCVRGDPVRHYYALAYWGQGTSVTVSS VL: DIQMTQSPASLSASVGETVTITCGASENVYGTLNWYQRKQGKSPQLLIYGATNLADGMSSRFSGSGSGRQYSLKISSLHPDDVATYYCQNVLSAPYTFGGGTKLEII"
  result: "0.16 OD 450 nm"
- binder: "recombinant humanized anti-CD66c antibody Protein ID 2938 (Vk5 + VH7) (antibody, human IgG1, V domains shown, also called hu 2938) VH: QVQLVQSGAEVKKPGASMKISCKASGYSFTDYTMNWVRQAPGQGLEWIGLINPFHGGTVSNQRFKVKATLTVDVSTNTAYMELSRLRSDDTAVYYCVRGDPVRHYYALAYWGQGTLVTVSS VL: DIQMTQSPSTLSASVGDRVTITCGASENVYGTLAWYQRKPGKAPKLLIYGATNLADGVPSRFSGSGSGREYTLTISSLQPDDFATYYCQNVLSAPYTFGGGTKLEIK"
  result: "0.05 OD 450 nm"
- binder: "recombinant humanized anti-CD66c antibody Protein ID 3043 (Vk8 + VH6) (antibody, V domains shown, also called hu 3043; #71) VH: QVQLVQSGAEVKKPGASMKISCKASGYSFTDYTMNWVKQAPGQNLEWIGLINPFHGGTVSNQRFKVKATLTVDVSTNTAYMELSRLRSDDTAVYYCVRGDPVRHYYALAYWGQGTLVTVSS VL: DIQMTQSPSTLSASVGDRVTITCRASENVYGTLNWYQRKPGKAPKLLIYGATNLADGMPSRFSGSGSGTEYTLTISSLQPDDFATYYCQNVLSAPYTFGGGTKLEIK"
  result: "0.16 OD 450 nm"
- binder: "recombinant humanized anti-CD66c antibody Protein ID 3007 (Vk7 + VH6) (antibody, human IgG1, V domains shown, also called hu 3007; #43) VH: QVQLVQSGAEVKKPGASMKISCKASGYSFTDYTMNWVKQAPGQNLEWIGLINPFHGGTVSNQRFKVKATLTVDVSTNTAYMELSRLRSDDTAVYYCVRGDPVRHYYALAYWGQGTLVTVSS VL: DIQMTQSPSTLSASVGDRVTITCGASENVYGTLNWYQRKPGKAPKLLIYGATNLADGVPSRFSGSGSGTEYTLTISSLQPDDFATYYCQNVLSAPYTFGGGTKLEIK"
  result: "0.18 OD 450 nm"

meta.source: patent US20220119518A1
